Values from patent US11547697B2

# target_entity: p110γ (Homo sapiens (Human), UniProt P48736)
# Sequence (P48736 whole entry): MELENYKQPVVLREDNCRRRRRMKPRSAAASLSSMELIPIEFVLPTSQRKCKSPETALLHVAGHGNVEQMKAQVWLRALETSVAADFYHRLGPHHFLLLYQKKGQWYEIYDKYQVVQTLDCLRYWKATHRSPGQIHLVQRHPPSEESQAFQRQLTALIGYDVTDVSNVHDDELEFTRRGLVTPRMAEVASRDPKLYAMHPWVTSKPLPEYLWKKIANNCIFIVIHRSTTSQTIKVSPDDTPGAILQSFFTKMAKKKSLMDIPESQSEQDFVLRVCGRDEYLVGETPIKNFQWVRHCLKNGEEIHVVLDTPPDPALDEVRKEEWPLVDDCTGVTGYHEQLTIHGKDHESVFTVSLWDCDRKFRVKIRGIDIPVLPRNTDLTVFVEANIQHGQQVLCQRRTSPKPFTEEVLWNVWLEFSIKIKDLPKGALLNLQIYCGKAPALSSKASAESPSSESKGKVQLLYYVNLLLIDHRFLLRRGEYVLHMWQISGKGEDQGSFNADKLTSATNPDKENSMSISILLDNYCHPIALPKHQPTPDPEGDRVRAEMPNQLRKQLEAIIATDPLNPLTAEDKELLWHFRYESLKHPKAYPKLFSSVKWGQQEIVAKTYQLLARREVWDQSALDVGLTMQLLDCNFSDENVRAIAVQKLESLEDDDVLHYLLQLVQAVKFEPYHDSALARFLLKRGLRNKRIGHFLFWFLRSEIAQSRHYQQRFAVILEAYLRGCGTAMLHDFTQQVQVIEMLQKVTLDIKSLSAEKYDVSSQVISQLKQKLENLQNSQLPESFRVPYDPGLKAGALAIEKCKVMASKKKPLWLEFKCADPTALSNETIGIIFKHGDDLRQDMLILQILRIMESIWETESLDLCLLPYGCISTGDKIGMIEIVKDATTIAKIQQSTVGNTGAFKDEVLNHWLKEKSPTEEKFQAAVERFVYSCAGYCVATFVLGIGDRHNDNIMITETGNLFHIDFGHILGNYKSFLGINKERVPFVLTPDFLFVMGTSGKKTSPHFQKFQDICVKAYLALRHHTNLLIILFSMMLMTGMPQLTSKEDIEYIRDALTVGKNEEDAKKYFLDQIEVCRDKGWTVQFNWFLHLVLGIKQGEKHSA
# experiment_notes: PI 3-Kinase (human) HTRF assay, p110γ
# Type: biochemical
# condition_summary: read-out: PI3K γ In Vitro IC50
pIC50: −log10 of the molar value.
observed_property: pIC50

(Q) Using the record for `O=C(c1cnc2ccc(-c3cnc(Cl)c(NS(=O)(=O)c4cccc(F)c4)c3)cn12)N1CCOCC1` , report its pIC50.
(A) > 7.00

(Q) Using the record for `Nc1nc2cc(-c3ccc4ncc(C(=O)N5CCn6cncc6C5)n4c3)ccc2o1` , report its pIC50.
(A) > 5.00

(Q) Using the record for `COc1ncc(-c2ccc3ncc(C(=O)N4CCOCC4)n3c2)c2cn[nH]c12` , report its pIC50.
(A) > 5.00
